biological target: ROMK (Homo sapiens (Human)); assay: Thallium Flux Assay
Sequence (P48048 whole entry): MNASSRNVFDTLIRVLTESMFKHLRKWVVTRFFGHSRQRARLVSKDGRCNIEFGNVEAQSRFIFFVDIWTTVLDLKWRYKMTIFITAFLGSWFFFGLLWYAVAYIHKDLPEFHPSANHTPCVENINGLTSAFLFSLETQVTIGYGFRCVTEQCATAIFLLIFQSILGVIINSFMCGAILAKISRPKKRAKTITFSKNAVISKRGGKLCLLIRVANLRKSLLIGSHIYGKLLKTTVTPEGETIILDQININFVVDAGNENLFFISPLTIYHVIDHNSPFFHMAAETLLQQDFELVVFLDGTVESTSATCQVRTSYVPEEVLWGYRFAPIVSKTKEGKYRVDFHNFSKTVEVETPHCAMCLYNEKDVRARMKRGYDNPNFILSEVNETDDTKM
I'd appreciate it if you could supply IC50 values for the items below.
Numbers only, in nM.

Each compound below has a recorded value; state its IC50.
1. CC1=C(N2CCOC3(CCN(CC(O)c4ccc(-n5cnnn5)nc4C)CC3)C2=O)COC1=O (stereo not drawn) [Example 39]
2. CC1=C(N2CCNC3(CCN(CC(O)c4ccc(-n5cnnn5)nc4C)CC3)C2=O)COC1=O (single isomer, unassigned) [Example 2B]
3. CC1=C(N2CCOC3(CCN(C[C@@H](O)c4ccc5c(c4C)COC5=O)CC3)C2=O)COC1=O [Example 8B]
4. CC1=C(N2CCOC3(CCN(C[C@@H](F)c4ccc5c(c4C)COC5=O)CC3)C2=O)COC1=O [Example 58]
5. Cc1nc(-n2cnnn2)ccc1C(O)CN1CCC2(CC1)CN(C1=CC(=O)OC1)CCO2 (single isomer, unassigned) [Example 20B]
6. O=C1C=C(N2CCOC3(CCN(C[C@@H](O)c4ccc(-n5cnnn5)nc4)CC3)C2)CO1 [Example 19B]
7. CC1=C(N2CCOC3(CCN(CCc4cnc(-n5cnnn5)cn4)CC3)C2=O)COC1=O [Example 52]
8. CC1=C(N2CCOC3(CCN(CC(O)c4cnc(-n5cnnn5)cn4)CC3)CC2)COC1=O (single isomer, unassigned) [Example 40]

Resp:
[11.2, 56.2, 89.9, 306, 225, 263, 39.3, 118]

Req: Report the value of IC50 obtained on ROMK (Homo sapiens (Human)) for O=C1OCC(N2CCOC3(CCN(C[C@H](O)c4ccc(-n5cnnn5)nc4)CC3)C2)=C1C1CC1 [Example 28A] .
Resp: 224

====

biological target: ROMK (Homo sapiens (Human)); test: Thallium Flux Assay
Quantity Measured: pIC50
Answers are plain numbers, as −log10 of the molar value.

Some solved entries appear below for comparison.
> print(dat)
                                   molecule  quantity.measured  assay.value
1  CC1=C(N2CCOC3(CCN(C[C@H](O)c4ccc5c(c4C)COC5=O)CC3)C2)COC1=O              pIC50         6.77
2  CC1=C(N2CCN(C)C3(CCN(CC(O)c4ccc(-n5cnnn5)nc4C)CC3)C2=O)COC1=O (single isomer, unassigned) [Example 35A]              pIC50         7.38
3  CC1=C(N2CCOC3(CCN(C[C@H](O)c4ccc(-n5cnnn5)nc4)CC3)C2=O)COC1=O              pIC50         7.84

Give pIC50 for all molecules that follow.
1. CC1=C(N2CCOC3(CC4CCC(C3)N4CC(O)c3cnc(-n4cnnn4)cn3)C2=O)COC1=O (single isomer, unassigned)
2. CC1=C(N2CCCOC3(CCN(CC(O)c4ccc(-n5cnnn5)nc4C)CC3)C2=O)COC1=O (single isomer, unassigned)

Resp:
1. 6.32
2. 6.28

Req: # return recorded pIC50 for entry COc1cc(-n2cnnn2)ccc1C(O)CN1CCC2(CC1)CN(C1=C(C)C(=O)OC1)CCO2 (single isomer, unassigned) [Example 33A]
Resp: 7.52
